Tested on: XIP peptide (Xip251-270)
TEST: small-molecule binders of XIP peptide, primary screen, biochemical, small-molecule microarray, fluorescence 635/667 nm, 0.5 µg/mL protein (AID 1183)
DETAILS: small-molecule microarray binding, fluorescence 635 nm; higher = more signal
EXPERIMENTAL ENDPOINT: composite z-score
Please state the value as a number alone, without comment.

Take a look at these entries with their results.
MOLECULE	composite z-score
[N-]=[N+]=Nc1ccccc1[C@@H]1OC(c2ccc(OCCCO)cc2)=N[C@]1(CCS(=O)(=O)c1ccccc1)C(=O)N1CCOCC1	0.731
COCCOC(=O)N1C(=O)[C@@]2(c3cc(C#CCC(C(=O)OC)C(=O)OC)ccc31)[C@H](c1ccc(O)cc1)N1[C@H](c3ccccc3)[C@H](c3ccccc3)OC(=O)[C@H]1[C@@H]2C(N)=O	0.619
CCCCCCc1nc(CCCc2cc3c(c(CCCCCC)n2)[Si](C(C)C)(C(C)C)OC3)cc2c1[Si](C(C)C)(C(C)C)OC2	-0.442
CC1CC/C=C\[C@H]2OC34C=CCN(Cc5ccccc5)C(=O)[C@H]3N(CCCCCO)C(=O)[C@@H]4C2C(=O)O1 (stereo not given in full)	0.525

Note: attention shifts to another entry.
INPUT: Hello, I am looking for reported composite z-score with XIP peptide (Xip251-270) for C=CCC(OC(C)=O)[C@@H]1[C@@H](N(Cc2cc3ccccc3o2)C(=O)c2ccc(C)cc2)c2cc(OCCCO)ccc2N1C(=O)c1ccc2ccccc2c1 (stereo not given in full) . Could you help?
OUTPUT: -0.152

====

TEST: E. coli DRC41 culture turbidity changes, primary screen, E. coli filamentation inducer project, strain DRC41, OD650, 48 h (AID 1152);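 further: E. coli MC1000 strain DRC41 lacking acrAB efflux pump and sulA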
DETAILS: E. coli DRC41 (acrAB sulA), higher = more signal, called active from +8 up or from −8 down
The source made the active and inactive calls.
EXPERIMENTAL ENDPOINT: z-score

Answered cases to consult:
MOLECULE	READOUT VALUE
CCCCCN1CC=CC23O[C@@H]4/C=C\CCC(C)OC(=O)C4[C@H]2C(=O)N(CCCCCO)[C@@H]3C1=O (stereo partly specified)	2.65 (inactive)
N[C@@H](Cc1ccccc1)Cn1cc(-c2ccccc2)nn1	-2.54 (inactive)
O=C1[C@]2(CO)C=C(Br)[C@@H](C[C@@H]2c2ccccc2)[C@@]12CO2	0.168 (inactive)

INPUT: Give its z-score value. Item: COc1ccc(C(O)C2C=CC3C(=O)N(C)C(=O)C3N2Nc2ccccc2)cc1OCc1ccccc1 (stereo unspecified)
OUTPUT: -1.69 (inactive)

INPUT: Any idea what its z-score is? The molecule is `CCOC(=O)[C@H]1C/C=C/C[C@H](C(=O)OCC)C(=O)O[C@H]2[C@@H](OC)O[C@H](CO)[C@@H](OC(=O)Nc3ccc4c(c3)OCO4)[C@@H]2OC1=O`
OUTPUT: 1.2 (inactive)

INPUT: Request the reported z-score associated with `O=C(CCN1CCOCC1)c1cccc(O)c1`
OUTPUT: -0.202 (inactive)

====

TEST: FRG1 promoter luciferase signal modulators, primary screen, FRG1 inhibition for FSHD, cell-based, C2C12 myotubes, firefly/Renilla luciferase, luminescence (AID 1084)
DETAILS: higher = more signal, called active from +8 up or from −8 down
EXPERIMENTAL ENDPOINT: z-score
Please give only the number in your answer, with no unit.

COMPOUND	READOUT VALUE
COC(=O)[C@@]1(Cc2ccccc2)[C@H]2c3cc(C(=O)N4CCCC4)n(C)c3C[C@H]2CN1C(=O)c1ccccc1	0.121
Cc1ccc([C@H]2C(C(=O)O)=C[C@@H](C)N2S(=O)(=O)c2ccc(C)cc2)cc1	-0.282

INPUT: Tell me the measured z-score of `[N-]=[N+]=Nc1ccccc1C[C@]1(C(=O)NCCN2CCOCC2)N=C(c2ccc(OCCCO)cc2)O[C@H]1c1ccccc1` , please.
OUTPUT: -0.897

INPUT: Suppose we examine the compound CC(C)c1ccc(NN2C(C(O)c3c(F)cccc3Cl)C=CC3C(=O)N(c4ccccc4)C(=O)C32)cc1 (centres undefined) ; what z-score value has been reported?
OUTPUT: 2.73

====

TEST: S. cerevisiae RM11-1a growth modifiers, primary screen, strain RM11-1a, OD600, basal, 24 h (AID 1177);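 further: cultures grown under basal conditions with no added stressor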
DETAILS: OD600, 24 h, higher = more signal, called active from +8 up or from −8 down
Label MET when z-score is at or above -0.5; anything below gets NOT MET.

INPUT: Entry `CC(C)CNC(=O)[C@@]1(c2ccc([N+](=O)[O-])cc2)CC(=O)N(CC23CC4CC(CC(C4)C2)C3)[C@@H]1c1ccc(CO)cc1` : is its z-score no less than -0.5?
OUTPUT: NOT MET

INPUT: Confirm if z-score reported for the molecule `CCCNC(=O)[C@@H]1c2ccccc2C(=O)N(Cc2ccccc2)[C@H]1c1ccc(CO)cc1` is -0.5 or above.
OUTPUT: MET

INPUT: Can `COCCCNC(=O)[C@@]1(CCC(=O)OC(C)(C)C)N=C(c2ccc(OCCCO)cc2)O[C@H]1c1ccccc1CN=[N+]=[N-]` be said to have z-score at or above -0.5?
OUTPUT: MET

INPUT: Does the reported z-score for `COC(=O)[C@@]1(Cc2ccccc2)[C@H]2c3cc(C(=O)N4CCCC4)n(C)c3C[C@H]2CN1C(=O)c1ccccc1` fall at or above the -0.5 mark?
OUTPUT: MET

INPUT: For this molecule, is measured z-score -0.5 or higher? `COCCOC(=O)N1C(=O)[C@@]2(c3cc(C#Cc4ccc(OC)cc4)ccc31)[C@H](C(=O)N1CCN(c3ncccn3)CC1)[C@H]1C(=O)O[C@H](c3ccccc3)[C@H](c3ccccc3)N1[C@@H]2c1ccc(O)cc1`
OUTPUT: NOT MET

INPUT: Reported z-score at or above -0.5? `O=C(CCN1CCOCC1)c1cccc(O)c1`
OUTPUT: NOT MET

INPUT: Does the reported z-score for `COCCOC(=O)N1C(=O)[C@@]2(c3ccccc31)[C@H](C(=O)NC[C@H](O)c1ccccc1)[C@H]1C(=O)O[C@H](c3ccccc3)[C@H](c3ccccc3)N1[C@@H]2c1ccc(OCCO)cc1` fall at or above the -0.5 mark?
OUTPUT: MET

====

Tested on: Lefty1
TEST: Lefty1 binders on small-molecule microarrays, primary screen, biochemical, small-molecule microarray, 635/667 nm fluorescence (AID 1139)
DETAILS: small-molecule microarray binding, fluorescence 635/667; higher = more signal
EXPERIMENTAL ENDPOINT: composite z-score
Lab note: jot down the number only; don't add units.

Some solved entries appear below for comparison.
1. O=C/C=C/c1ccc2c(c1)OCO2 0.401
2. COCCOC(=O)N1C(=O)[C@@]2(c3ccccc31)[C@H](C(=O)Nc1nc3ccccc3s1)[C@H]1C(=O)O[C@H](c3ccccc3)[C@H](c3ccccc3)N1[C@@H]2c1ccc(OCCO)cc1 1.33
3. O=C1O[C@H](c2ccccc2)[C@H](c2ccccc2)N2[C@H]1[C@@H](C(=O)O)[C@]1(C(=O)Nc3ccc(C#CC4=CCCCC4)cc31)[C@H]2c1ccc(OCCO)cc1 1.28
4. COc1ccc([Si](C)(C)[C@@H]2[C@@H](CC(=O)N3CCC[C@H]3CO)O[C@]3(C(=O)N(C)c4c(Br)cc(C)cc43)[C@H]2C)cc1 1.19

INPUT: I'd like to know its composite z-score. The compound in question is `COC(=O)[C@@]1(Cc2ccccc2)[C@H]2c3cc(C(=O)N(C)C)n(Cc4cc(C)n(C)n4)c3C[C@H]2CN1C(=O)c1ccccc1`
OUTPUT: -0.169

====

TEST: PSAC antagonists in infected red cells, primary screen, cell-based, P. falciparum Indochina, OD700, 1 h (AID 1154)
DETAILS: P. falciparum Indochina infected RBC osmotic lysis, higher = more signal, called active from +8 up or from −8 down
Parameter threshold = 1. Response is t when z-score meets or exceeds it, else f.

Look over these answered cases.
COMPOUND	GROUP
CCOC(=O)C[C@H]1[C@H](OC(=O)c2ccc(C(=O)c3ccccc3)cc2)[C@@H](NC(=O)C2CCCCC2)c2cc(OCCCO)ccc2N1C(=O)c1ccccc1	t
C#CCN(C(/C=C/c1ccccc1)CO)C(C(=O)O)c1ccccc1 (centres undefined)	f
O=C1C[C@]2(c3ccc([N+](=O)[O-])cc3)C(=O)N(CC(F)(F)F)c3cc(CO)ccc3[C@H]2N1CC12CC3CC(CC(C3)C1)C2	f
C=CC[C@@]1(C(=O)O)N=C(c2ccc(OCCCO)cc2)O[C@@H]1c1ccccc1N=[N+]=[N-]	t
CC(=O)Nc1cc(Br)ccc1C(=O)O	f
COCC(=C=CC[C@H](O)c1ccc(OCCO)cc1)C[C@H](O)c1cc(Cl)cc(Cl)c1O	t
CCCC[C@H]1OB(O)C[C@H]2C1=C(C)C[C@H]1C(=O)N(Cc3ccccc3)C(=O)[C@H]12	t
CC(=CC1CCCCC1)[C@@H](NC(=O)c1ccc(C(F)(F)F)cc1)c1ccc(-c2ccccc2)cc1	t
[N-]=[N+]=NCc1ccccc1[C@@H]1OC(c2ccc(OCCCO)cc2)=N[C@]1(Cc1ccccc1)C(=O)N1CCCCC1	t
CCCCC(O)C1C=CC2C(=O)N(C3CCCCC3)C(=O)C2N1Nc1ccc(OC)cc1 (centres undefined)	t

INPUT: Does the reported z-score for `CCOC(=O)C[C@H]1[C@H](OC(=O)Cc2ccc3c(c2)OCO3)[C@@H](NC(=O)C2CCCCC2)c2cc(OCCCO)ccc2N1C(=O)Cc1ccc(OC)cc1` fall at or above the 1 mark?
OUTPUT: t

INPUT: Please check the record `Cc1ccc([C@H]2[C@H](C(=O)O)[C@H](Sc3ccccc3)[C@@H](C(C)C)N2S(=O)(=O)c2ccc(C)cc2)cc1` and state if its z-score is at or above 1.
OUTPUT: t

INPUT: Could you verify whether the entry `COC(=O)[C@@]1(Cc2ccccc2)[C@H]2c3cc(C(=O)N4CCCC4)n(C)c3C[C@H]2CN1C(=O)c1ccccc1` shows z-score of no less than 1?
OUTPUT: t

INPUT: Quick check: does `CN(C)CCCCNC(=O)[C@H]1C[C@H]2C(=O)N[C@@H](Cc3ccccc3)C(=O)N2[C@H]1c1ccc(O)cc1` have z-score greater than or equal to 1?
OUTPUT: f
